Entries and their measured kon follow.
biological target: T1, human TSLP (human, UniProt Q969D9 29-159); test: SPR
T1 construct: also called hTSLP; rhTSLP
Reply numerically in M⁻¹ s⁻¹, unit not repeated.

{"BINDER": "BDG38.098 (antibody, V domains shown, IgG1) VH: QMQLVESGGGVVQPGRSLTLSCAASGFEFRTYGMHWVRQAPGKGLEWVAVIWDDGSNTVYADSVKGRFTITRDNSKNTLNLQMNSLRVEDTAVYYCVRAPQWYLTAEAFDLWGQGTMVTVSS VL: SYVLTQPPSVSVAPGQTATITCGGNLIGARLVHWYQQKPGQAPVLVIYDDSDRPSRIPERFSGSNIGNTATLTISRVEAGDEADYYCQVWDYSSDSMVFGGGTKLTVL", "ENDPOINT": "kon", "REPORTED_MEASUREMENT": "8.6e+06"}
{"BINDER": "BDG38.076 (antibody, V domains shown, IgG1) VH: QMQLVESGGGVVQPGRSLRLSCAASGFAFRTYGMHWVRQAPGKGLEWVAVIWDDGSATHYADSVKGRFTITRDNSKNTLNLQMNSLRAEDTAVYYCVRAPQWYLTAEAFDLWGQGTMVTVSS VL: SYVLTQPPSVSVAPGETASITCGGNMIGGYLVHWYQQKPGQAPLLVIYDDVDRPARIPERFSGSNSGNTATLTISRVEAGDEADYYCQVWDHDTNHMVFGGGTKLTVL", "ENDPOINT": "kon", "REPORTED_MEASUREMENT": "2e+07"}
{"BINDER": "BDG38.090 (antibody, V domains shown, IgG1) VH: QMQLVESGGGVVQPGRSLTLSCAASGFEFRTYGMHWVRQAPGKGLEWLGVIWDDGSNTHYADSVKGRFTITRDNSKNTLNLQMNSLRVEDTAVYYCARAPQWYLTAEAFDLWGQGTMVTVSS VL: SYILTQPPSVSVAPGETARITCGGNLIGARLVHWYQQKPGQAPVLVVYDDSDRPSRIPERFSGSNIGNTATLTIEDVEEGDEADYYCQVWDYYSDHMVFGGGTKLTVL", "ENDPOINT": "kon", "REPORTED_MEASUREMENT": "9.57e+06"}
{"BINDER": "BDG38.112 (antibody, V domains shown, IgG1) VH: QMQLVESGGGVVQPGRSLRLSCAASGFEFRTYGMHWVRQAPGKGLEWLGVIWYDGSNTHYADSVKGRFTITRDNSKNTLNLQMNSLRAEDTAVYYCVRAPQWYLTAEAFDLWGQGTMVTVSS VL: SYILTQPPSVSVAPGQTATITCGGNLIGARLVHWYQQKPGQAPVLVIYDDSDRPSRIPERFSGSNIGNTATLTIERVEEGDEADYYCQVWDYSSDTYVFGGGTKLTVL", "ENDPOINT": "kon", "REPORTED_MEASUREMENT": "1.06e+06"}

Turning now to a further record.
[Q] If you can, please state the reported kon value of BDG38.115 (antibody, V domains shown, IgG1) VH: QMQLVESGGGVVQPGRSLTLSCAASGFEFRTYGMHWVRQAPGKGLEWLGVIWYDGSNTHYADSVKGRFTITRDNSKNTLNLQMNSLRAEDTAVYYCVRAPQWYLTAEAFDLWGQGTMVTVSS VL: SYILTQPPSVSVAPGQTATITCGGNLIGARLVHWYQQKPGQAPVLVIYDDSDRPSRIPERFSGSNSGNTATLTISDVEEGDEADYYCQVWDYSSNTYVFGGGTKLTVL .
[A] 634000
